Test system: NCI-H460 lung
assay summary: NCI tumour cell line growth inhibition, 48 h
parameter measured: TGI

These recorded examples may help you get a feel for the data.
>>> result("Nc1nc(Nc2ccc3c(c2)CCC(N2CCCC2)CC3)nn1-c1cc2c(nn1)-c1ccccc1CCC2 (configuration not stated)")
"2.63 µM"
>>> result("O=C1CC(c2c[nH]c3ccccc23)C(=O)N1c1ccccc1 (configuration not stated)")
"> 100 µM"
>>> result("C/C(=C/c1c(C)[nH]c(=O)[nH]c1=O)C(=O)O")
"> 1380 µM"
>>> result("Cc1[nH]c(=O)[nH]c(=O)c1C(=O)N(CCO)Cc1ccccc1")
"> 100 µM"
>>> result("CC1=N/C(=C\\c2ccc([N+](=O)[O-])cc2)C(=O)O1")
"> 100 µM"
>>> result("COc1cnnc2c(C)c(-c3ccccc3)nn12")
"> 100 µM"
>>> result("O=c1c(S(=O)(=O)Oc2ccccc2)coc2cc(F)ccc12")
"> 100 µM"
>>> result("COc1ccc2c(c1)C(=O)c1c-2n(CCCCl)c(=O)c2cc(N(C)C)ccc12")
"> 100 µM"
>>> result("COc1cccc2c1C(=O)c1c(O)c3c(c(O)c1C2=O)C[C@@](O)(/C(C)=N\\O)C[C@@H]3OC1CC(N)C(O)C(C)O1 (some centres not stated)")
"8.16 µM"
>>> result("C=CCNc1cccc2c1C(=O)c1ccccc1C2(O)CC=C (configuration not stated)")
"> 100 µM"

Please look up its TGI: `NCC(=O)CCC(=O)O`
> 100 µM

Please look up its TGI: `COc1cc(C(CC(OC)OC)=C(C#N)C#N)cc(OC)c1OC`
23.4 µM

Please look up its TGI: O=C1CCC2CCOc3ccc(O)c1c32 (configuration not stated)
> 100 µM

Please look up its TGI: c1ccc2nn(C3CCCCO3)nc2c1 (configuration not stated)
> 100 µM

Please look up its TGI: `CC1=N/C(=C\c2cccc3ccccc23)C(=O)O1`
> 100 µM

Please look up its TGI: C[C@@]12CCC[C@@](C)(C(=O)O)C1CC[C@@]13CC(=O)[C@@](CO)(CCC12)C3 (some centres not stated)
> 100 µM

---

System: EKVX NSCLC
assay summary: NCI tumour cell line growth inhibition, 48 h
Listed next: entries and their corresponding TGI.

>>> result("Oc1ccc(SCc2ccc(NCc3ccccc3)cc2)cc1")
"50.3 µM"
>>> result("Cc1ccc(N(C(=O)CC(=O)N2N=C(c3ccccc3)C(N=Nc3ccc([N+](=O)[O-])cc3)C2=O)C(=O)c2ccc(Cl)cc2)cc1 (centres undefined)")
"> 100 µM"

Would you kindly look at the next entry?
Please look up its TGI: CC(C)CC(=O)CC(O)C(Cl)(Cl)Cl (centres undefined)
> 100 µM

---

Test system: SNB-75 CNS
assay summary: NCI tumour cell line growth inhibition, 48 h
Listed next: entries and their corresponding GI50.

These recorded examples may help you get a feel for the data.
>>> result("COc1ccc(-c2nn(-c3cccc(NC(=O)Nc4cccc(C(F)(F)F)c4)c3)cc2-c2ccncc2)cc1Cl")
"1.51 µM"
>>> result("COC(=O)c1cc2c(cc1Cl)SC(N(N(C)C)S(=O)(=O)c1ccc(Cl)cc1)=NS2(=O)=O")
"23.7 µM"
>>> result("COc1ccc(-c2[nH]ncc2-c2cc(OC)c(OC)c(OC)c2)cc1")
"< 0.01 µM"
>>> result("CC(=O)OC1=C2C(CC3C4CC=C5CC(OC(C)=O)CCC5(C)C4CCC23C)C2C(=O)N(Cc3ccccc3)C(=O)C2C1 (centres undefined)")
"5.54 µM"
>>> result("CN1CCN(c2cc(Nc3cc(C4CC4)[nH]n3)nc(Nc3ccc(CC(=O)NCc4cccc(F)c4)cc3)n2)CC1")
"0.168 µM"
>>> result("Oc1ccc(-c2nc3ccc4[nH]ncc4c3c3c2CCCC3)c2cccnc12")
"0.132 µM"

Please look up its GI50: CC(C)(C)c1nnc2n(c1=O)N=CC(c1ccc(Br)cc1)S2 (centres undefined)
21.5 µM

Please look up its GI50: `C1C[OH+]CC[OH+]CC[OH+]CC[OH+]CC[OH+]CC[OH+]1.[Cl-].[Ta+5]`
23.8 µM

Please look up its GI50: `COc1ccc(Cn2cc(Cn3c(=O)c(-c4nc5ccccc5[nH]4)cc4ccccc43)nn2)c(OC)c1OC`
0.0354 µM

Please look up its GI50: `C=C(C(=O)OC)[C@@H]1C[C@@H](O)[C@]2(C)CC/C=C(\C)CCC[C@H](C)[C@H](O)C1O2`
> 100 µM

Please look up its GI50: `NCC(=O)CCC(=O)O`
> 100 µM

Please look up its GI50: `COc1cccc2c(Nc3ccc(C(=O)NCCN(C)C)cc3)cc(-c3ccccc3)nc12`
29.5 µM

Please look up its GI50: `COc1ccc2sc3c(NCCCNCCO)nc4ccccc4c3c(=O)c2c1`
1.82 µM

Please look up its GI50: `Cc1[nH]nc(C(=O)Nc2n[nH]c3ccccc23)c1[N+](=O)[O-]`
64.1 µM

---

Listed next: entries and their corresponding log10 TGI.
System: HCC-2998 colon
assay summary: NCI tumour cell line growth inhibition, 48 h
Heads up: the numbers are on a log10 scale; they represent TGI in µM.

>>> numeric_result("CCOC(=O)/C=C(/C(=O)OCC)n1ccc(=O)[nH]c1=O")
1.51
>>> numeric_result("COC1=CCC2=C(CCN(C(=O)C3CCC3)C2Cc2ccc(OC)c(O)c2)C1 (stereo not drawn)")
1.62
>>> numeric_result("COc1ccc(-c2c(C#N)c(N)nc3c2CCCc2ccc(F)cc2-3)cc1OC")
1.16

Please look up its log10 TGI: `O=C(Nc1ccccc1F)c1ccc(NC2=C(Cl)C(=O)N(Cc3ccccc3)C2=O)cc1`
1.46

Please look up its log10 TGI: `COc1cc(C(CC(OC)OC)=C(C#N)C#N)cc(OC)c1OC`
1.61

---

Listed next: entries and their corresponding TGI.
Test system: LOX IMVI melanoma
assay summary: NCI tumour cell line growth inhibition, 48 h
API: value field is a number in µM; no unit string.

>>> numeric_result("Cc1cnc2[nH]c(-c3cccc(Cl)c3)cc(=O)c2c1")
11.6
>>> numeric_result("Cc1oc2c(C)c3oc(=O)cc(C)c3cc2c1CN")
41.9

Please look up its TGI: `O=C(CC(=O)c1ccccc1NC1=Cc2ccccc2C(=O)C1=O)C(=O)NC1=C(Cl)C(=O)c2ccccc2C1=O`
3.35

Please look up its TGI: `Cc1ccc([Se][Se]c2ccc(C)cc2)cc1`
18.9

---

System: HCC-2998 colon
assay summary: NCI tumour cell line growth inhibition, 48 h
Listed next: entries and their corresponding TGI.

>>> result("CSc1nc(=O)c(C#N)c(-c2ccccc2)n1C1OC(COC(C)=O)C(OC(C)=O)C(OC(C)=O)C1OC(C)=O (stereo not given)")
"> 100 µM"
>>> result("CCc1nc(N)nc(N)c1-c1ccc(Cl)c(N=NN(C)C)c1")
"62.9 µM"
>>> result("COc1ccc(Nc2c[nH]c(=O)[nH]c2=O)cc1")
"> 100 µM"
>>> result("COc1ccc(CCC2NCCc3cc(OC)c(OC)cc32)cc1 (stereo not given)")
"> 100 µM"
>>> result("COc1ccc(S(=O)(=O)N/N=C(\\C)CN2C(=O)c3ccccc3C2=O)cc1")
"> 100 µM"
>>> result("O=C1CCC2CCOc3ccc(O)c1c32 (stereo not given)")
"> 100 µM"

Please look up its TGI: c1ccc2nn(C3CCCCO3)nc2c1 (stereo not given)
> 100 µM

Please look up its TGI: CC(=O)OC1C(O)C(C)OC(OC(=O)C2CCC3C(C2)OC2(CC(OC(=O)/C=C/c4ccccc4)C(C)CO2)C32CO2)C1OC1OC(C)C(O)C(O)C1O (stereo not given)
0.0881 µM

Please look up its TGI: `Clc1ccc(-c2cn(-c3ccccc3)c(-c3ccccc3)n2)c(Cl)c1`
> 25.5 µM

Please look up its TGI: `O=C1CCC(=O)C12CCc1cccc(O)c12`
> 100 µM

---

Test system: KM12 colon
assay summary: NCI tumour cell line growth inhibition, 48 h; in the data active means GI50 below about 0.43 µM; inactive means the rest
# valid calls are yes (1) = active, no (0) = inactive; nothing else

Worked examples, 5 compounds total:
>>> class_name("CC1(C)CC[C@]2(C(=O)O)CC[C@]3(C)[C@H](CC[C@@H]4[C@@]5(C)CCC(=O)C(C)(C)[C@@H]5CC[C@]43C)[C@H]2[C@H]1OC(=O)C(F)(F)F")
"no (0)"
>>> class_name("c1ccc2c(c1)ccc1c3ccccc3ccc21")
"no (0)"
>>> class_name("CC(C)(C)n1cc(-c2ccnc(NCCNS(=O)(=O)c3cccc4ccccc34)c2)c(-c2cccc(F)c2)n1")
"no (0)"
>>> class_name("COc1cc(/C=C/C(=O)c2cc(OC)c(OC)c(OC)c2)cc(OC)c1OC")
"no (0)"
>>> class_name("COc1ccc(-c2[nH]ncc2-c2cc(OC)c(OC)c(OC)c2)cc1")
"yes (1)"

How did this test come out for `CCCCC#Cc1cccc(=O)o1` ?
no (0)

How did this test come out for `CN(C)CCCC(=O)Nc1ccc(Cn2nnc3c2C(=O)c2nnn(Cc4ccc(NC(=O)CCCN(C)C)cc4)c2C3=O)cc1` ?
no (0)

How did this test come out for COc1cccc(C2C(C#N)=C(N)Oc3cc(OC)ccc32)c1 (centres undefined) ?
yes (1)

How did this test come out for `Nc1c(O)c(S(=O)(=O)O)c(O)c2c1C(=O)c1ccccc1C2=O` ?
no (0)
